molecular target: Gal4-HNF4α (human HNF4α LBD) (Homo sapiens, UniProt P41235); construct: uniprot entry: P41235-1, residues 142-377; expressed in transfected cells; host or cells: HEK293T; test: Hybrid Gal4-HNF4α reporter gene assay in transiently transfected HEK293T cells; format: cell-based; details: Table S1, primary screening, 50 µM
value type: HNF4a-screening_activity_(mean_of_n=2)
No unit in the answer, only the number.

Solved cases (2 shown):
| smiles entry | experimental result |
| --- | --- |
| CN1C(=O)CCC1=O | 0.9037 |
| COc1ccc(CC(=O)O)cc1 | 0.9108 |

Moving on to the next molecule.
Query :: Report measured HNF4a-screening_activity_(mean_of_n=2); entry is O=C1CC2(CCCC2)CC(=O)N1
Result :: 0.8965

* * *

Biological target: Gal4-HNF4α (human HNF4α LBD) (Homo sapiens, UniProt P41235)
Construct: uniprot entry: P41235-1, residues 142-377; expressed in transfected cells; host or cells: HEK293T
Sequence (P41235 142-377): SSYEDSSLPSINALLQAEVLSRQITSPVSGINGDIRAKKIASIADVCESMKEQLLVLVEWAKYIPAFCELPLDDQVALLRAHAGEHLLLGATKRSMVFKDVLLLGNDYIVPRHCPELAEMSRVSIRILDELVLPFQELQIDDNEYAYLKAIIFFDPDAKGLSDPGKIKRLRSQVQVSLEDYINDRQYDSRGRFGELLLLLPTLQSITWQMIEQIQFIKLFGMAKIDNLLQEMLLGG
Assay: Hybrid Gal4-HNF4α reporter gene assay in transiently transfected HEK293T cells
Assay type: cell-based
Settings: Table S1, primary screening, 50 µM
Parameter threshold = 1. Response is TRUE when HNF4a-screening_activity_(mean_of_n=2) meets or exceeds it, else FALSE.

| molecule | class |
| --- | --- |
| OCCN1CCN(c2ccccc2)CC1 [Prestw-Frag-1945, OCCN1CCN(CC1)c1ccccc1] | TRUE |
| CNS(=O)(=O)CCc1ccccc1 [Prestw-Frag-3368, CNS(=O)(=O)CCc1ccccc1] | TRUE |
| NS(=O)(=O)c1ccc(Cl)cc1 [Prestw-Frag-1977, NS(=O)(=O)c1ccc(Cl)cc1] | FALSE |
| COc1ccc(N2CCN(c3ccc(N)cc3)CC2)cc1 [Prestw-Frag-1557, COc1ccc(cc1)N1CCN(CC1)c1ccc(N)cc1] | TRUE |

From here, focus on the item given below.
Query :: Does O=C(O)CC[C@H](NC(=O)c1ccccc1)C(=O)O [Prestw-Frag-1499, OC(=O)CC[C@H](NC(=O)c1ccccc1)C(O)=O] have a reported HNF4a-screening_activity_(mean_of_n=2) of at least 1?
Result :: TRUE

* * *

Biological target: Gal4-HNF4α (human HNF4α LBD) (Homo sapiens, UniProt P41235)
Construct: uniprot entry: P41235-1, residues 142-377; expressed in transfected cells; host or cells: HEK293T
Sequence (P41235 142-377): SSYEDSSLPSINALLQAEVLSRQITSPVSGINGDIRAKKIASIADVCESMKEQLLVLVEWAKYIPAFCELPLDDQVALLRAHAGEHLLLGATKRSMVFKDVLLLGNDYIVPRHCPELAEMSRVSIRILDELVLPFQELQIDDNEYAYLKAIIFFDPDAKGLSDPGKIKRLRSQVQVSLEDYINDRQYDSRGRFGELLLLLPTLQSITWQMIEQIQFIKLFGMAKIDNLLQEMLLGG
Test: Hybrid Gal4-HNF4α reporter gene assay in transiently transfected HEK293T cells
Type: cell-based
Conditions: Table S1, primary screening, 50 µM
value type: HNF4a-screening_activity_(mean_of_n=2)
No unit in the answer, only the number.

| compound | HNF4a-screening_activity_(mean_of_n=2) |
| --- | --- |
| OCCn1cncn1 [Prestw-Frag-3101, OCCn1cncn1] | 0.9898 |
| c1ccc(C(c2ccccc2)n2cncn2)cc1 [Prestw-Frag-2645, c1ncn(n1)C(c1ccccc1)c1ccccc1] | 0.9885 |
| NC(=O)c1nc[nH]c1N [Prestw-Frag-2268, NC(=O)c1nc[nH]c1N] | 0.9961 |
| COc1ccc2[nH]cnc2c1 [Prestw-Frag-3678, COc1ccc2[nH]cnc2c1] | 0.9895 |
| Clc1ccc(C(c2ccccc2)N2CCNCC2)cc1 (stereo not shown) [Prestw-Frag-1741, Clc1ccc(cc1)C(N1CCNCC1)c1ccccc1] | 1.086 |

Query :: Report measured HNF4a-screening_activity_(mean_of_n=2); entry is OCc1ccncc1 [Prestw-Frag-2303, OCc1ccncc1]
Result :: 0.9833

Query :: Report measured HNF4a-screening_activity_(mean_of_n=2); entry is COc1ccc(CCN2CCC(N)CC2)cc1 [Prestw-Frag-1051, COc1ccc(CCN2CCC(N)CC2)cc1]
Result :: 1.433

Query :: Report measured HNF4a-screening_activity_(mean_of_n=2); entry is NCCCCN1CCN(c2ncccn2)CC1 [Prestw-Frag-2921, NCCCCN1CCN(CC1)c1ncccn1]
Result :: 1.125

Query :: Report measured HNF4a-screening_activity_(mean_of_n=2); entry is OC1CCN(c2ccccc2F)CC1 [Prestw-Frag-2803, OC1CCN(CC1)c1ccccc1F]
Result :: 1.103

Query :: Report measured HNF4a-screening_activity_(mean_of_n=2); entry is NS(=O)(=O)c1ccccc1C(F)(F)F [Prestw-Frag-1394, NS(=O)(=O)c1ccccc1C(F)(F)F]
Result :: 0.846
